Reported values of IC50 for individual entries
Target: Thrombin (Homo sapiens, UniProt P00734)
Experiment: biochemical
Conditions: TAME hydrolysis; read-out: ID50, thrombin
A number alone suffices; assume nM.

COc1cc(C(=N)N)ccc1OC(=O)/C=C/c1ccccc1 [Compound 31, 4-amidino-2-methoxyphenyl cinnamate] ... 20000
CC=CC=CC(=O)Oc1ccc(C(=N)N)cc1C(=O)c1ccccc1 [Compound 6] ... 80
N=C(N)c1ccc(OC(=O)c2ccccc2)c(NC(=O)c2ccccc2)c1 [Compound 30, 4-amidino-2-benzoylaminophenyl benzoate] ... 30

Next item in the queue.
IC50 recorded for this molecule, N=C(N)c1ccc(OC(=O)c2ccc(CNC(=O)OCc3ccccc3)cc2)c([N+](=O)[O-])c1 [Compound 61] , is 400

====

Target: Trypsin (Bos taurus)
Sequence (P00760 24-246): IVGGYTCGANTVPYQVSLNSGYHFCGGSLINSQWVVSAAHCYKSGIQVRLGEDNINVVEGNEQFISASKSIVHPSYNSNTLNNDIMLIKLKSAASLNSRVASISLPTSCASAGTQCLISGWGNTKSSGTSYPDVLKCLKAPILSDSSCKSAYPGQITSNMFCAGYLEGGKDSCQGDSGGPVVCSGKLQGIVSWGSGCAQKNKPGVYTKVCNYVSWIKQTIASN
property: pIC50
Friendly reminder that pIC50 comes from taking -log10 of the concentration in mol/L.

pIC50 recorded for this compound, N=C(N)Nc1ccc(C(=O)Oc2ccc(C(=N)N)cc2C(=O)c2ccccc2)cc1 [Compound 69] , is 7.10

pIC50 recorded for this compound, CC(C)(C)c1ccc(C(=O)Oc2ccc(C(=N)N)cc2[N+](=O)[O-])cc1 [Compound 38] , is 7.70

pIC50 recorded for this compound, N=C(N)c1ccc(OC(=O)c2ccccc2)c(C(=O)c2ccccc2)c1 [Compound 29, 4-amidino-2-benzoylphenyl benzoate] , is 6.10

pIC50 recorded for this compound, COc1cc(C(=N)N)ccc1OC(=O)c1ccc(CN)cc1 [Compound 58] , is 5.10

====

Target: Clr (Homo sapiens)
Sequence (P00736 464-705 limits assumed): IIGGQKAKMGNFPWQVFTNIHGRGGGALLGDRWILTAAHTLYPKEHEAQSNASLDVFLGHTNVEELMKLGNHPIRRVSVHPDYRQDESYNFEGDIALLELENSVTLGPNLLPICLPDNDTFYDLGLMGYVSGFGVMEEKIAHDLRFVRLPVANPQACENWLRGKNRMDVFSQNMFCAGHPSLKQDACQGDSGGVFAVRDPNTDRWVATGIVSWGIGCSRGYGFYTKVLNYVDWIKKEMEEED
Sequence (P00736 18-463 limits assumed): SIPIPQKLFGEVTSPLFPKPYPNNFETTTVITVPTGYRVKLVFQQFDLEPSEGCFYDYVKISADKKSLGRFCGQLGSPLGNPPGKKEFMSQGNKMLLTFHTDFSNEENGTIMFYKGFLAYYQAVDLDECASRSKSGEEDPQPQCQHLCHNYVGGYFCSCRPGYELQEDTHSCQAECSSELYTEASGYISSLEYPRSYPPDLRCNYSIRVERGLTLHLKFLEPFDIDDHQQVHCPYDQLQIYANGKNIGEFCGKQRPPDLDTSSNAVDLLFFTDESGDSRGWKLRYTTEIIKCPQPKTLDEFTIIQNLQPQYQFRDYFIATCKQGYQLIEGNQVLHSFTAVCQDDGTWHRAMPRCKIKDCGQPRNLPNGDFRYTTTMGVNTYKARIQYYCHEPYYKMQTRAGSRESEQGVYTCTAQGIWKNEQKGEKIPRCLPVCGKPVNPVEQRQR
property: pIC50
Friendly reminder that pIC50 comes from taking -log10 of the concentration in mol/L.

Recorded results for 4 molecules are shown here.
CC(C)(C)c1ccc(C(=O)Oc2ccc(C(=N)N)cc2[N+](=O)[O-])cc1 [Compound 38] ... 6.52
COc1cc(C(=N)N)ccc1OC(=O)c1ccc(NC(=N)N)c(C)c1 [Compound 75] ... 5.10
N=C(N)c1ccc(OC(=O)c2ccc(O)cc2)c(C(=O)c2ccccc2)c1 [Compound 46] ... 5.70
CN(C)c1ccc(C(=O)Oc2ccc(C(=N)N)cc2C(=O)c2ccccc2)cc1 [Compound 66] ... 5.52

pIC50 recorded for this molecule, N=C(N)c1ccc(OC(=O)c2ccc(CNC(=O)OCc3ccccc3)cc2)c([N+](=O)[O-])c1 [Compound 61] , is 6.40

pIC50 recorded for this molecule, COc1cc(C(=N)N)ccc1OC(=O)c1ccccc1 [Compound 23, 4-amidino-2-methoxyphenyl benzoate] , is 5.15

pIC50 recorded for this molecule, N=C(N)c1ccc(OC(=O)C=Cc2ccccc2)c([N+](=O)[O-])c1 [Compound 34] , is 5.52

pIC50 recorded for this molecule, COC(=O)c1cc(C(=N)N)ccc1OC(=O)c1ccc(CNC(=O)OCc2ccccc2)cc1 [Compound 59] , is 5.70

pIC50 recorded for this molecule, Cc1cc(OC(=O)c2ccccc2)ccc1C(=N)N [Compound 22, 4-amidino-3-methylphenyl benzoate] , is 5.22

pIC50 recorded for this molecule, COC(=O)c1cc(C(=N)N)ccc1OC(=O)c1ccccc1 [Compound 25] , is 5.40

pIC50 recorded for this molecule, N=C(N)c1ccc(OC(=O)c2ccccc2)c([N+](=O)[O-])c1 [Compound 27, 4-amidino-2-nitrophenyl benzoate] , is 6.30

====

Biological target: Plasmin (Homo sapiens, UniProt P00747)
Sequence (P00747 581-810 limits assumed, species assumed): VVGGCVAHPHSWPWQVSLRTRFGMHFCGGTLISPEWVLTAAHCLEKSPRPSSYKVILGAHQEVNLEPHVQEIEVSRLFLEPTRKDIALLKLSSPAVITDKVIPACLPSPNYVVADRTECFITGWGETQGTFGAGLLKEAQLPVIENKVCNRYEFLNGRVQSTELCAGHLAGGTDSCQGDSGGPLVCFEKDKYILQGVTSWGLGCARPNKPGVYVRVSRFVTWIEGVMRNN
Sequence (P00747 97-580 limits assumed, species assumed): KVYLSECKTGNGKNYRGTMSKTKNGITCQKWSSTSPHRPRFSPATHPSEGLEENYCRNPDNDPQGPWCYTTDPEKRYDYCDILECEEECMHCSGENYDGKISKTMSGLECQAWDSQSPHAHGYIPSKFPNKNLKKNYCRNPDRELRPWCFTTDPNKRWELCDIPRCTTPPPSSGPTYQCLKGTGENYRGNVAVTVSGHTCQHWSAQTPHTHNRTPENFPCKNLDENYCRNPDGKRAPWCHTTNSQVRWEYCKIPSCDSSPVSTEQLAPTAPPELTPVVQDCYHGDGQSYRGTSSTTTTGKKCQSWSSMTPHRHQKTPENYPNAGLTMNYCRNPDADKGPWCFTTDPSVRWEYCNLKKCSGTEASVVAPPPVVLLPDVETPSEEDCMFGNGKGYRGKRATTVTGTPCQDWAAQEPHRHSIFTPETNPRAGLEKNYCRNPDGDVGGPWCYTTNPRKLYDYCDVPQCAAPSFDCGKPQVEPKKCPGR
property: IC50 (µM)
A number alone suffices; assume µM.

COc1cc(C(=N)N)ccc1OC(=O)c1ccccc1 [Compound 23, 4-amidino-2-methoxyphenyl benzoate] ... 20
COc1cc(C(=N)N)ccc1OC(=O)/C=C/c1ccccc1 [Compound 31, 4-amidino-2-methoxyphenyl cinnamate] ... 3
N=C(N)c1ccc(OC(=O)c2ccc(OCc3ccccc3)cc2)c(C(=O)c2ccccc2)c1 [Compound 45] ... 0.3

Next item in the queue.
Reading of IC50 for COC(=O)c1ccc(C(=O)Oc2ccc(C(=N)N)cc2C(=O)c2ccccc2)cc1 [Compound 50] with Plasmin (Homo sapiens, UniProt P00747): 0.5

====

Biological target: Thrombin (Homo sapiens, UniProt P00734)
Assay: biochemical
Conditions: TAME hydrolysis; read-out: ID50, thrombin
# label = MET if IC50 < 2000 nM else NOT MET

Solved entries (count: 8):
COc1ccc(C(=O)Oc2ccc(C(=N)N)cc2C(=O)c2ccccc2)cc1 ... MET
COc1cc(C(=N)N)ccc1OC(=O)CCCCCNC(=N)N ... NOT MET
COC(=O)c1ccc(C(=O)Oc2ccc(C(=N)N)cc2C(=O)c2ccccc2)cc1 ... MET
CC(C)(C)c1ccc(C(=O)Oc2ccc(C(=N)N)cc2[N+](=O)[O-])cc1 ... MET
N=C(N)c1ccc(OC(=O)CCCc2ccccc2)c(C(=O)c2ccccc2)c1 ... NOT MET
N=C(N)c1ccc(OC(=O)c2ccc(C=O)cc2)c(C(=O)c2ccccc2)c1 ... MET
N=C(N)c1ccc(OC(=O)CCCCCNC(=O)OCc2ccccc2)c(C(=O)c2ccccc2)c1 ... NOT MET
CC(=O)Nc1ccc(C(=O)Oc2ccc(C(=N)N)cc2C(=O)c2ccccc2)cc1 ... MET

Below: the item to evaluate.
Inquiry: For this compound, is IC50 lower than 2000 nM? N=C(N)c1ccc(OC(=O)CCN)c(C(=O)c2ccccc2)c1
Reply text: NOT MET

====

Target: Clr (Homo sapiens)
Sequence (P00736 464-705 limits assumed): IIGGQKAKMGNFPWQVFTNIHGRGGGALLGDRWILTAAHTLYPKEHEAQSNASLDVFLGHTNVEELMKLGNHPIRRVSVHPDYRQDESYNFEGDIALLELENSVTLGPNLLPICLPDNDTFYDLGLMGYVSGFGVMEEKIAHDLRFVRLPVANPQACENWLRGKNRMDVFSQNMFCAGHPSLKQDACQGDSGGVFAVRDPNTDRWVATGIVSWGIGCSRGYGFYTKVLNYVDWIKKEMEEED
Sequence (P00736 18-463 limits assumed): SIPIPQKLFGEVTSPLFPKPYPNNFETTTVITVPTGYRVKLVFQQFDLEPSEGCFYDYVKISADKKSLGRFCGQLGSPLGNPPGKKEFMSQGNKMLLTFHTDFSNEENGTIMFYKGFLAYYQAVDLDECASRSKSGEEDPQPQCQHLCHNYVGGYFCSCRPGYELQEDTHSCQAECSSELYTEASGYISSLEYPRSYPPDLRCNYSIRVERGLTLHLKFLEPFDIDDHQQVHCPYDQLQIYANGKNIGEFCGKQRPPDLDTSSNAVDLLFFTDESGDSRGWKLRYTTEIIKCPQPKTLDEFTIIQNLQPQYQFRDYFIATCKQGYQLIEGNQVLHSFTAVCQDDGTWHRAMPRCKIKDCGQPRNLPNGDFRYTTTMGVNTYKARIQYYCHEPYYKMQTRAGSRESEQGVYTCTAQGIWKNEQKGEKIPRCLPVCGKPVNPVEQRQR
property: IC50 (nM)
A number alone suffices; assume nM.

Recorded results for 2 compounds are shown here.
N=C(N)Nc1ccc(C(=O)Oc2ccc(C(=N)N)cc2C(=O)c2ccccc2)cc1 ... 2000
COc1cc(C(=N)N)ccc1OC(=O)/C=C/c1ccccc1 [Compound 31, 4-amidino-2-methoxyphenyl cinnamate] ... 2000

IC50 recorded for this compound, CC=CC=CC(=O)Oc1ccc(C(=N)N)cc1C(=O)c1ccccc1 , is 1000

IC50 recorded for this compound, COC(=O)c1cc(C(=N)N)ccc1OC(=O)c1ccc(NC(=N)N)cc1 , is 1000
